# Tested on: HepG2-A16-CD81;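 also: HepG2-A16-CD81 hepatoma cells plated as in the liver-stage assay but without sporozoites, with DMSO wells as negative and 25 µM puromycin as positive control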
# experiment: % inhibition of HepG2 viability (CellTiter-Glo); higher = more toxic
# measurementSetup: 5 µM
Assignment: determine reported % inhibition of HepG2 viability for the given molecules.
# number only, unit % dropped from output

Notebook: COc1cc(C)c2c(Oc3cccc(C(F)(F)F)c3)c(OC)cc(NC(C)CCCN)c2n1 (stereo not given) , % inhibition of HepG2 viability read as 3.86

Data point: Nc1nc(C(F)(F)F)cc2c1[nH]c(=O)n2Cc1ccccc1 ; % inhibition of HepG2 viability = 8.47

Briefly, % inhibition of HepG2 viability measured for COc1cccc(N2CCN(C3=Nc4c(F)cccc4[C@H](CC(=O)O)N3c3cc(C(F)(F)F)ccc3OC)CC2)c1 : 5.59

# % inhibition of HepG2 viability of N[C@H](CCC(=O)N[C@@H](Cc1c[nH]c2ccccc12)C(=O)O)C(=O)O = -8.85

# % inhibition of HepG2 viability of c1ccc(-c2nnc3c4ccccc4c(N4CCNCC4)nn23)cc1 = 10.4

From: the supplement of paper PMC7801607
